These entries and their values trace back to patent US20060234940A1.

- experimental target: T1, porcine kidney DP IV, wild type (porcine, UniProt P22411 38-766, natively glycosylated (Asn279 among others, as seen in the crystal))
- T1 construct: In the crystal a 2-2-2 symmetric tetramer (dimer of dimers); also called p wt DP IV; p wt
- T1 sequence (P22411 38-766): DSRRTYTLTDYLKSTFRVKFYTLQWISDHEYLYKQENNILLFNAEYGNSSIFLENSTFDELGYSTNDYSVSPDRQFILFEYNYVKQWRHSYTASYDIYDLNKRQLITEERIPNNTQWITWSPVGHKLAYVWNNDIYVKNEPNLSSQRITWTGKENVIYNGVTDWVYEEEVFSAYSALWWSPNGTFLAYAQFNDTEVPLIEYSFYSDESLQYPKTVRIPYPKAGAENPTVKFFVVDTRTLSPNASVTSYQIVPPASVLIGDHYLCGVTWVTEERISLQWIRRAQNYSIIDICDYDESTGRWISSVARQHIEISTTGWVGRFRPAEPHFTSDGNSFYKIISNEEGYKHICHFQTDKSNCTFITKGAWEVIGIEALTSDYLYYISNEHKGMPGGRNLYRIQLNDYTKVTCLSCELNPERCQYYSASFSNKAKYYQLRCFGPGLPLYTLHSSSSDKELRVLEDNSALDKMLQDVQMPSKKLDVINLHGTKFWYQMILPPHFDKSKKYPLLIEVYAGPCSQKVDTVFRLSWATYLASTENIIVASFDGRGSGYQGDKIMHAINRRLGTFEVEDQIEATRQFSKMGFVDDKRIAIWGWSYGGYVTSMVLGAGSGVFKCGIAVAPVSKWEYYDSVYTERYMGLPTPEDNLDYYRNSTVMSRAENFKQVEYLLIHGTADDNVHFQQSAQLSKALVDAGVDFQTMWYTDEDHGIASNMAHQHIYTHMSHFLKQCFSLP
- experiment summary: MALDI-TOF MS, inhibition of DP IV-catalyzed truncation of the substrate NPY after preincubation with TFTSDY
assay readout: pKi
// scale note: pKi = -log10(conc_M); give the bare number

Per the record, TFTSDY (also called glucagon5-10; T(5)-F-T-S-D-Y) [hexapeptide TFTSDY] has pKi of 4.76
